These data points were gathered from patent US6096874A.

assay: Biodistribution in mammary tumor-bearing rats primed with estradiol; type: in vivo, rat; details: rat, kidney, iv, 10 uCi/rat, 6 h, read-out: Kidney uptake
quantity.kind: tissue uptake at 6 h
Respond with a number, then the unit of measure.

Any idea what tissue uptake at 6 h was measured for CCN(CC)CCOc1ccc(/C(=C(/CCC[131I])c2ccccc2)c2ccccc2)cc1 ?
1.39 %ID/g

----------
Test: in vivo
Parameters: species or system rat
Conditions: rat, spleen, iv; 6 h; read-out: Spleen uptake
Protocol: In animal tissue distribution studies, each rate was given 8.9 μCi (0.15 ml) tracer intravenously. The tumor-bearing rats were killed at 1, 3, 6 and 24 h. […] The amount of DES given should occupy tumor estrogen receptor sites. […] Female Fisher 344 rats (250-275 g) (Harlan, Inc., Indianapolis, Ind.) were inoculated with mammary tumor cells using the 13762 tumor cell line (s.c. 10^5 cells/rat). […] The tissues were weighted and counted for radioactivity. […]
quantity.kind: tissue uptake at 6 h (%ID/g)
Answers are plain numbers, in %ID/g.

Any idea what tissue uptake at 6 h was measured for CCN(CC)CCOc1ccc(/C(=C(/CCC[131I])c2ccccc2)c2ccccc2)cc1 ?
2.33

----------
assay: Biodistribution in mammary tumor-bearing rats primed with estradiol; assay type: in vivo, rat; conditions: rat, tumor, iv, 6 h, read-out: Tumor uptake
quantity.kind: tissue uptake at 6 h (%ID/g)
One number for each entry, in %ID/g.

Any idea what tissue uptake at 6 h was measured for CCN(CC)CCOc1ccc(/C(=C(/CCC[131I])c2ccccc2)c2ccccc2)cc1 ?
0.48

----------
test: in vivo; design: species or system rat; details: rat, lung, iv; 30 min; read-out: Lung uptake
quantity.kind: tissue uptake at 0.5 h (%ID/g)
Give bare numbers, in %ID/g.

Any idea what tissue uptake at 0.5 h was measured for CCN(CC)CCOc1ccc(/C(=C(/CCC[18F])c2ccccc2)c2ccccc2)cc1 [[^18 F]FTX] ?
3.82

----------
test: Biodistribution in mammary tumor-bearing rats primed with estradiol; format: in vivo, rat; details: rat, blood, iv, 10 uCi/rat, 6 h, read-out: Blood uptake
quantity.kind: tissue uptake at 6 h (%ID/g)
One number for each entry, in %ID/g.

Any idea what tissue uptake at 6 h was measured for CCN(CC)CCOc1ccc(/C(=C(/CCC[131I])c2ccccc2)c2ccccc2)cc1 [^131 I-IODOTAMOXIFEN] ?
0.086

----------
test: in vivo; set-up: species or system rat; conditions: rat, tumor, iv; 6 h; read-out: Tumor uptake
quantity.kind: tissue uptake at 6 h (%ID/g)
One number for each entry, in %ID/g.

Any idea what tissue uptake at 6 h was measured for CCN(CC)CCOc1ccc(/C(=C(/CCC[131I])c2ccccc2)c2ccccc2)cc1 [^131 I-IODOTAMOXIFEN] ?
0.26

----------
test: in vivo; set-up: species or system rat; settings: rat, tumor, iv; 2 h; read-out: Tumor uptake
quantity.kind: tissue uptake at 2 h (%ID/g)
One number for each entry, in %ID/g.

Any idea what tissue uptake at 2 h was measured for CCN(CC)CCOc1ccc(/C(=C(/CCC[18F])c2ccccc2)c2ccccc2)cc1 [[^18 F]FTX] ?
0.41

----------
experiment: Biodistribution in mammary tumor-bearing rats primed with estradiol; type: in vivo, rat; details: rat, muscle, iv, 10 uCi/rat, 6 h, read-out: Muscle uptake
quantity.kind: tissue uptake at 6 h (%ID/g)
Numbers only, in %ID/g.

Any idea what tissue uptake at 6 h was measured for CCN(CC)CCOc1ccc(/C(=C(/CCC[131I])c2ccccc2)c2ccccc2)cc1 ?
0.253

----------
experiment: Biodistribution in mammary tumor-bearing rats primed with estradiol; format: in vivo, rat; conditions: rat, liver, iv, 10 uCi/rat, 6 h, read-out: Liver uptake
quantity.kind: tissue uptake at 6 h (%ID/g)
Answers are plain numbers, in %ID/g.

Any idea what tissue uptake at 6 h was measured for CCN(CC)CCOc1ccc(/C(=C(/CCC[131I])c2ccccc2)c2ccccc2)cc1 [^131 I-IODOTAMOXIFEN] ?
4.67

----------
experiment: in vivo; set-up: species or system rat; conditions: rat, muscle, iv; 30 min; read-out: Muscle uptake
quantity.kind: tissue uptake at 0.5 h (%ID/g)
Give bare numbers, in %ID/g.

Any idea what tissue uptake at 0.5 h was measured for CCN(CC)CCOc1ccc(/C(=C(/CCC[18F])c2ccccc2)c2ccccc2)cc1 [[^18 F]FTX] ?
0.183

----------
Assay: in vivo
Parameters: species or system rat
Settings: rat, tumor, iv; 1 h; read-out: Tumor uptake
Method: In animal tissue distribution studies, each rate was given 8.9 μCi (0.15 ml) tracer intravenously. The tumor-bearing rats were killed at 1, 3, 6 and 24 h. […] The amount of DES given should occupy tumor estrogen receptor sites. […] Female Fisher 344 rats (250-275 g) (Harlan, Inc., Indianapolis, Ind.) were inoculated with mammary tumor cells using the 13762 tumor cell line (s.c. 10^5 cells/rat). […] The tissues were weighted and counted for radioactivity. […]
quantity.kind: tissue uptake at 1 h
Respond with a number, then the unit of measure.

Any idea what tissue uptake at 1 h was measured for CCN(CC)CCOc1ccc(/C(=C(/CCC[131I])c2ccccc2)c2ccccc2)cc1 [^131 I-IODOTAMOXIFEN] ?
0.18 %ID/g

----------
test: Biodistribution in mammary tumor-bearing rats primed with estradiol; assay type: in vivo, rat; details: rat, kidney, iv, 10 uCi/rat, 1 h, read-out: Kidney uptake
quantity.kind: tissue uptake at 1 h

Any idea what tissue uptake at 1 h was measured for CCN(CC)CCOc1ccc(/C(=C(/CCC[131I])c2ccccc2)c2ccccc2)cc1 [^131 I-IODOTAMOXIFEN] ?
1.3 %ID/g

----------
assay: in vivo; design: species or system rat; conditions: rat, thyroid, iv; 24 h; read-out: Thyroid uptake
quantity.kind: tissue uptake at 24 h (%ID/g)
Answers are plain numbers, in %ID/g.

Any idea what tissue uptake at 24 h was measured for CCN(CC)CCOc1ccc(/C(=C(/CCC[131I])c2ccccc2)c2ccccc2)cc1 [^131 I-IODOTAMOXIFEN] ?
0.493

----------
Test: in vivo
Parameters: species or system rat
Conditions: rat, kidney, iv; 6 h; read-out: Kidney uptake
Procedure: In animal tissue distribution studies, each rate was given 8.9 μCi (0.15 ml) tracer intravenously. The tumor-bearing rats were killed at 1, 3, 6 and 24 h. […] The amount of DES given should occupy tumor estrogen receptor sites. […] Female Fisher 344 rats (250-275 g) (Harlan, Inc., Indianapolis, Ind.) were inoculated with mammary tumor cells using the 13762 tumor cell line (s.c. 10^5 cells/rat). […] The tissues were weighted and counted for radioactivity. […]
quantity.kind: tissue uptake at 6 h (%ID/g)
Give bare numbers, in %ID/g.

Any idea what tissue uptake at 6 h was measured for CCN(CC)CCOc1ccc(/C(=C(/CCC[131I])c2ccccc2)c2ccccc2)cc1 [^131 I-IODOTAMOXIFEN] ?
1.36

----------
assay: in vivo; set-up: species or system rat; conditions: rat, liver, iv; 3 h; read-out: Liver uptake
quantity.kind: tissue uptake at 3 h (%ID/g)
Numbers only, in %ID/g.

Any idea what tissue uptake at 3 h was measured for CCN(CC)CCOc1ccc(/C(=C(/CCC[131I])c2ccccc2)c2ccccc2)cc1 ?
6

----------
assay: in vivo; set-up: species or system rat; conditions: rat, spleen, iv; 1 h; read-out: Spleen uptake
quantity.kind: tissue uptake at 1 h
Respond with a number, then the unit of measure.

Any idea what tissue uptake at 1 h was measured for CCN(CC)CCOc1ccc(/C(=C(/CCC[131I])c2ccccc2)c2ccccc2)cc1 ?
3.38 %ID/g

----------
For each of the compounds below, state its MTD.
assay: Acute/immediate toxicity following i.v. injection in BALB/c mice; conditions: mouse, in vivo, iv
Give bare numbers, in mg/kg.

CCN(CC)CCOc1ccc(/C(=C(\CCCCl)c2ccccc2)c2ccccc2)cc1 [cis-CITX, chlorotamoxifen] | 50
CCN(CC)CCOc1ccc(/C(=C(/CCCI)c2ccccc2)c2ccccc2)cc1 [trans-ITX, iodotamoxifen] | 8
CCN(CC)CCOc1ccc(/C(=C(\CCCI)c2ccccc2)c2ccccc2)cc1 [cis-ITX, iodotamoxifen] | 50
CCN(CC)CCOc1ccc(/C(=C(/CCCBr)c2ccccc2)c2ccccc2)cc1 [trans-BTX] | 50
CCN(CC)CCOc1ccc(/C(=C(\CCCBr)c2ccccc2)c2ccccc2)cc1 [cis-BTX] | 50

Could you now consider this next compound?
Any idea what MTD was measured for CCN(CC)CCOc1ccc(C(=C(CCCI)c2ccccc2)c2ccccc2)cc1 ?
50

----------
assay: in vivo; design: species or system rat; details: rat, muscle, iv; 3 h; read-out: Muscle uptake
quantity.kind: tissue uptake at 3 h (%ID/g)
Give bare numbers, in %ID/g.

Any idea what tissue uptake at 3 h was measured for CCN(CC)CCOc1ccc(/C(=C(/CCC[131I])c2ccccc2)c2ccccc2)cc1 ?
0.253

----------
For each of the compounds below, state its IC50.
Biological target: estrogen receptor (Sus scrofa, UniProt Q29040)
Sequence (Q29040 1-595): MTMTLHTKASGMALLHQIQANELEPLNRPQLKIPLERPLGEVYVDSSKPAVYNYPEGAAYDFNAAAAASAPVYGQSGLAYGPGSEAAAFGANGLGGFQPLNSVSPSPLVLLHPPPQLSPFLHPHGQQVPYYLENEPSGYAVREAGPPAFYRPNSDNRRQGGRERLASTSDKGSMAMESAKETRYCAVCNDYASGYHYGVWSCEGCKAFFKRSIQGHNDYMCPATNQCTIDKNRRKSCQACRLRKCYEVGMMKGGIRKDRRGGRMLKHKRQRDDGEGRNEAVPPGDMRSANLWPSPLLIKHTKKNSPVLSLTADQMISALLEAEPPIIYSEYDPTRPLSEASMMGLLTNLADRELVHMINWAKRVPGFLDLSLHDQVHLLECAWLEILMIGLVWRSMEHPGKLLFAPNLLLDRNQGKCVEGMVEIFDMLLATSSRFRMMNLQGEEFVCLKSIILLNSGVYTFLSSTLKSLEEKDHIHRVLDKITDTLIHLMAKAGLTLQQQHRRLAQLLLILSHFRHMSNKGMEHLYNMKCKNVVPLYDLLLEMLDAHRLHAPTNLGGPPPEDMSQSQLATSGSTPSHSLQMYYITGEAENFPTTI
Assay: biochemical
Answers are plain numbers, in µM.

CCN(CC)CCOc1ccc(/C(=C(/CCCN)c2ccccc2)c2ccccc2)cc1 [TX-NH2 (trans), Amino Tamoxifen] | 300

Could you now consider this next compound?
Any idea what IC50 was measured for CCN(CC)CCOc1ccc(/C(=C(/CCCN=[N+]=[N-])c2ccccc2)c2ccccc2)cc1 [TX-N3 (trans), Tamoxifen Azide] ?
38
